molecular target: C-X-C chemokine receptor type 4 (Homo sapiens); test: Competitive inhibition of TAMRAAc-TZ14011 binding to CXCR4 (unknown origin) expressed in CHO cells at 1 uM in presence of ZnCl2 by NanoBRET assay relative to control; type: cell-based
property.name: inhibition (%)

c1ccc(CN(Cc2ccc3cc(CN4CCCNCCNCCCNCC4)ccc3c2)Cc2ccccn2)nc1 89.9
c1ccc(CN(Cc2cccc(-c3cccc(CN4CCCNCCNCCCNCC4)c3)c2)Cc2ccccn2)nc1 88.4
c1ccc(CN(Cc2ccc3c(c2)-c2cc(CN4CCCNCCNCCCNCC4)ccc2OCCCCO3)Cc2ccccn2)nc1 78.9
c1ccc(CN(Cc2ccc(-c3ccc(CN4CCCNCCNCCCNCC4)cn3)nc2)Cc2ccccn2)nc1 94.4
c1ccc(CN(Cc2cccc(-c3ccccc3CN3CCCNCCNCCCNCC3)c2)Cc2ccccn2)nc1 83.1
c1ccc(CN(Cc2ccc(-c3ccc(CN4CCCNCCNCCCNCC4)cc3)nc2)Cc2ccccn2)nc1 102
c1ccc(CN(Cc2ccc(CN3CCCNCCNCCCNCC3)cc2)Cc2ccccn2)nc1 83.7
c1ccc(CN(Cc2ccccn2)Cc2ccccc2-c2cccc(CN3CCCNCCNCCCNCC3)c2)nc1 102
c1ccc(CN(Cc2ccc(-c3ccc(CN4CCCNCCNCCCNCC4)cc3)cc2)Cc2ccccn2)nc1 87.9
c1ccc(CN(Cc2ccccn2)Cc2ccccc2-c2ccc(CN3CCCNCCNCCCNCC3)cc2)nc1 87.5
c1ccc(CN(Cc2ccc3c(CN4CCCNCCNCCCNCC4)cccc3c2)Cc2ccccn2)nc1 107
c1ccc(CN(Cc2ccc3c(c2)-c2cc(CN4CCCNCCNCCCNCC4)ccc2OCCO3)Cc2ccccn2)nc1 89
c1ccc(CN(Cc2ccc3c(c2)-c2cc(CN4CCCNCCNCCCNCC4)ccc2OCCCO3)Cc2ccccn2)nc1 81.8
c1ccc(CN(Cc2ccccn2)Cc2ccccc2-c2ccccc2CN2CCCNCCNCCCNCC2)nc1 99
c1ccc(CN(Cc2ccnc(-c3cc(CN4CCCNCCNCCCNCC4)ccn3)c2)Cc2ccccn2)nc1 92.2
c1ccc(CN(Cc2ccnc(-c3ccc(CN4CCCNCCNCCCNCC4)cc3)c2)Cc2ccccn2)nc1 92.6
c1ccc(CN(Cc2ccc3c(c2)-c2cc(CN4CCCNCCNCCCNCC4)ccc2OCO3)Cc2ccccn2)nc1 88.5
c1ccc(CN(Cc2cccc(-c3ccc(CN4CCCNCCNCCCNCC4)cc3)c2)Cc2ccccn2)nc1 105
c1ccc(CN(Cc2ccnc(-c3cccc(CN4CCCNCCNCCCNCC4)c3)c2)Cc2ccccn2)nc1 93.4

----------
target: C-X-C chemokine receptor type 4 (Homo sapiens, UniProt P61073); assay: Competitive inhibition of [125I]-CXCL12 binding to CXCR4 in human Jurkat cells at 1 uM in presence of ZnCl2 after 2 hrs by gamma counting analysis relative to control; format: cell-based
Sequence (P61073 whole entry): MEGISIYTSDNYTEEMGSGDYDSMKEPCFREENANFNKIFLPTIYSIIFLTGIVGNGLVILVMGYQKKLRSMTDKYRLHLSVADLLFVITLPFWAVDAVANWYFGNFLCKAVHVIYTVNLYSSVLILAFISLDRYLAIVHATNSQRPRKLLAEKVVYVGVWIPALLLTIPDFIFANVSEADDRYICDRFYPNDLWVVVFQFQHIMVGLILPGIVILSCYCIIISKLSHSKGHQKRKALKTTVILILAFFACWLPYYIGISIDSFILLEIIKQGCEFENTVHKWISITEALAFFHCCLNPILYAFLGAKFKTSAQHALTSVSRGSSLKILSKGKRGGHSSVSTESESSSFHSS
property.name: inhibition (%)

c1ccc(CN(Cc2ccccn2)Cc2ccccc2-c2cccc(CN3CCCNCCNCCCNCC3)c2)nc1 100
c1ccc(CN(Cc2ccc(-c3cccc(CN4CCCNCCNCCCNCC4)c3)cc2)Cc2ccccn2)nc1 101
c1ccc(CN(Cc2ccc(-c3ccccc3CN3CCCNCCNCCCNCC3)cc2)Cc2ccccn2)nc1 91.6
c1ccc(CN(Cc2ccc3c(c2)-c2cc(CN4CCCNCCNCCCNCC4)ccc2OCCO3)Cc2ccccn2)nc1 119
c1ccc(CN(Cc2ccc3c(CN4CCCNCCNCCCNCC4)cccc3c2)Cc2ccccn2)nc1 77.3
c1ccc(CN(Cc2ccccn2)Cc2ccccc2-c2ccccc2CN2CCCNCCNCCCNCC2)nc1 74.1
c1ccc(CN(Cc2ccc(-c3ccc(CN4CCCNCCNCCCNCC4)cc3)cc2)Cc2ccccn2)nc1 85.5
c1ccc(CN(Cc2ccccn2)Cc2ccccc2-c2ccc(CN3CCCNCCNCCCNCC3)cc2)nc1 84.1
c1ccc(CN(Cc2ccnc(-c3cc(CN4CCCNCCNCCCNCC4)ccn3)c2)Cc2ccccn2)nc1 99.2
c1ccc(CN(Cc2ccc3cc(CN4CCCNCCNCCCNCC4)ccc3c2)Cc2ccccn2)nc1 99.6
c1ccc(CN(Cc2ccc3nc(CN4CCCNCCNCCCNCC4)ccc3c2)Cc2ccccn2)nc1 110
c1ccc(CN(Cc2ccnc(-c3cccc(CN4CCCNCCNCCCNCC4)c3)c2)Cc2ccccn2)nc1 84.7
c1ccc(CN(Cc2ccc3c(c2)-c2cc(CN4CCCNCCNCCCNCC4)ccc2OCCCO3)Cc2ccccn2)nc1 97.1

----------
target: C-X-C chemokine receptor type 4 (Homo sapiens, UniProt P61073); assay: Competitive inhibition of TAMRAAc-TZ14011 binding to CXCR4 (unknown origin) expressed in CHO cells at 1 uM in absence of ZnCl2 by NanoBRET assay relative to control; type: cell-based
property.name: inhibition (%)

a: c1ccc(CN(Cc2cccc(-c3ccc(CN4CCCNCCNCCCNCC4)cc3)c2)Cc2ccccn2)nc1
b: c1ccc(CN(Cc2ccccn2)Cc2ccccc2-c2cccc(CN3CCCNCCNCCCNCC3)c2)nc1
c: c1ccc(CN(Cc2ccc3ccc(CN4CCCNCCNCCCNCC4)cc3c2)Cc2ccccn2)nc1
query: Reorder the items by inhibition, least to greatest. Output spec: a listing of the labels in the requested order.
result: a, b, c

----------
biological target: UniProt P61073; test: Competitive inhibition of [125I]-CXCL12 binding to CXCR4 in human Jurkat cells at 1 uM in absence of ZnCl2 after 2 hrs by gamma counting analysis relative to control; type: cell-based
property.name: inhibition (%)

In the examples that follow, each entry is paired with its recorded inhibition.
c1ccc(CN(Cc2ccc(-c3ccc(CN4CCCNCCNCCCNCC4)cc3)cc2)Cc2ccccn2)nc1 33.9
c1ccc(CN(Cc2ccc3c(c2)-c2cc(CN4CCCNCCNCCCNCC4)ccc2OCCCO3)Cc2ccccn2)nc1 32.5
c1ccc(CN(Cc2cccc(-c3cccc(CN4CCCNCCNCCCNCC4)c3)c2)Cc2ccccn2)nc1 46.6
c1ccc(CN(Cc2ccc3c(CN4CCCNCCNCCCNCC4)cccc3c2)Cc2ccccn2)nc1 81.7
c1ccc(CN(Cc2ccccn2)Cc2ccccc2-c2cccc(CN3CCCNCCNCCCNCC3)c2)nc1 41.9

A: c1ccc(CN(Cc2ccc3c(c2)-c2cc(CN4CCCNCCNCCCNCC4)ccc2OCCCCO3)Cc2ccccn2)nc1
B: c1ccc(CN(Cc2ccnc(-c3ccc(CN4CCCNCCNCCCNCC4)cc3)c2)Cc2ccccn2)nc1
query: Higher inhibition between A and B ? Mark your selection by writing its label.
result: A
(A: 57.3%, B: 39.2%)

A: c1ccc(CN(Cc2cccc(-c3ccc(CN4CCCNCCNCCCNCC4)cc3)c2)Cc2ccccn2)nc1
B: c1ccc(CN(Cc2ccc(-c3ccccc3CN3CCCNCCNCCCNCC3)cc2)Cc2ccccn2)nc1
C: c1ccc(CN(Cc2ccccn2)Cc2ccccc2-c2ccc(CN3CCCNCCNCCCNCC3)cc2)nc1
query: List the 3 entries from lowest inhibition to highest inhibition value. Output spec: a listing of the labels in the requested order.
result: A, B, C

----------
system: Human immunodeficiency virus 1; test: Antiviral activity against X4 tropic HIV-1 NL4-3 infected in human MT4 cells assessed as protection against virus-induced cytopathic effect in absence of ZnCl2 after 5 days by MTT assay; format: functional, organism-based; settings: Human immunodeficiency virus 1, NL4-3, MT4, 120 h
We begin with a simple list: items and their reported EC50.
Please give a number only; it is taken to be in nM.

c1ccc(CN(Cc2ccccn2)Cc2ccccc2-c2cccc(CN3CCCNCCNCCCNCC3)c2)nc1 40
c1ccc(CN(Cc2ccc3c(CN4CCCNCCNCCCNCC4)cccc3c2)Cc2ccccn2)nc1 220
c1ccc(CN(Cc2cccc(-c3ccccc3CN3CCCNCCNCCCNCC3)c2)Cc2ccccn2)nc1 4200

query: For the compound "c1ccc(CN(Cc2ccc(CN3CCCNCCNCCCNCC3)cc2)Cc2ccccn2)nc1" , give its measured EC50 value.
result: 6.5

query: For the compound "c1ccc(CN(Cc2ccc3c(c2)-c2cc(CN4CCCNCCNCCCNCC4)ccc2OCCCCO3)Cc2ccccn2)nc1" , give its measured EC50 value.
result: 670

query: For the compound "c1ccc(CN(Cc2ccc3c(c2)-c2cc(CN4CCCNCCNCCCNCC4)ccc2OCO3)Cc2ccccn2)nc1" , give its measured EC50 value.
result: 800

----------
tested on: Human immunodeficiency virus 1; test: Antiviral activity against X4 tropic HIV-1 NL4-3 infected in human MT4 cells assessed as protection against virus-induced cytopathic effect in absence of ZnCl2 after 5 days by MTT assay; format: functional, organism-based; conditions: Human immunodeficiency virus 1, NL4-3, MT4, 120 h
property.name: EC50 (nM)
Please give a number only; it is taken to be in nM.

In the examples that follow, each entry is paired with its recorded EC50.
c1ccc(CN(Cc2ccccn2)Cc2ccccc2-c2ccc(CN3CCCNCCNCCCNCC3)cc2)nc1 2600
c1ccc(CN(Cc2ccccn2)Cc2ccccc2-c2ccccc2CN2CCCNCCNCCCNCC2)nc1 1000
c1ccc(CN(Cc2ccc(-c3ncccc3CN3CCCNCCNCCCNCC3)cc2)Cc2ccccn2)nc1 110

query: For the compound "c1ccc(CN(Cc2cccc(-c3cccc(CN4CCCNCCNCCCNCC4)c3)c2)Cc2ccccn2)nc1" , give its measured EC50 value.
result: 750

query: For the compound "c1ccc(CN(Cc2ccnc(-c3ccc(CN4CCCNCCNCCCNCC4)cc3)c2)Cc2ccccn2)nc1" , give its measured EC50 value.
result: 140

query: For the compound "c1ccc(CN(Cc2ccc3cc(CN4CCCNCCNCCCNCC4)ccc3c2)Cc2ccccn2)nc1" , give its measured EC50 value.
result: 470

query: For the compound "c1ccc(CN(Cc2cccc(-c3ccc(CN4CCCNCCNCCCNCC4)cc3)c2)Cc2ccccn2)nc1" , give its measured EC50 value.
result: 3100

query: For the compound "c1ccc(CN(Cc2ccc3c(c2)-c2cc(CN4CCCNCCNCCCNCC4)ccc2OCCCO3)Cc2ccccn2)nc1" , give its measured EC50 value.
result: 580

query: For the compound "c1ccc(CN(Cc2ccc(-c3ccc(CN4CCCNCCNCCCNCC4)cc3)cc2)Cc2ccccn2)nc1" , give its measured EC50 value.
result: 780

query: For the compound "c1ccc(CN(Cc2ccc(-c3ccc(CN4CCCNCCNCCCNCC4)cn3)nc2)Cc2ccccn2)nc1" , give its measured EC50 value.
result: 680

query: For the compound "c1ccc(CN(Cc2ccc(-c3ccc(CN4CCCNCCNCCCNCC4)cc3)nc2)Cc2ccccn2)nc1" , give its measured EC50 value.
result: 590

query: For the compound "c1ccc(CN(Cc2ccc(-c3ccccc3CN3CCCNCCNCCCNCC3)cc2)Cc2ccccn2)nc1" , give its measured EC50 value.
result: 40

query: For the compound "c1ccc(CN(Cc2ccnc(-c3cc(CN4CCCNCCNCCCNCC4)ccn3)c2)Cc2ccccn2)nc1" , give its measured EC50 value.
result: 920

query: For the compound "c1ccc(CN(Cc2ccc3ccc(CN4CCCNCCNCCCNCC4)cc3c2)Cc2ccccn2)nc1" , give its measured EC50 value.
result: 790

query: For the compound "c1ccc(CN(Cc2ccnc(-c3cccc(CN4CCCNCCNCCCNCC4)c3)c2)Cc2ccccn2)nc1" , give its measured EC50 value.
result: 170
